Where these numbers come from: the RNAGym collection of RNA variant scans (doi:10.7554/elife.90254)

B1: OR4K15 (parent)
chain: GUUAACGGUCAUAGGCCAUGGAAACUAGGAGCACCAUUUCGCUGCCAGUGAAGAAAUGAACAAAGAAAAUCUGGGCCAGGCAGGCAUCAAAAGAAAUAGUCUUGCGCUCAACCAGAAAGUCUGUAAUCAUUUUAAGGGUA

Variants of: B1
assay.overview: self-cleavage, relative activity (ratio to wild type); higher = more cleavage; in vitro, sequencing; the parent is a self-cleaving ribozyme

>  <variant.code>
C10U U39C

>  <self-cleavage>
1.02

$$$$
>  <variant.code>
G7U A114G

>  <self-cleavage>
0.16

$$$$
>  <variant.code>
A51U A91G

>  <self-cleavage>
0.5

$$$$
>  <variant.code>
G14U A118U

>  <self-cleavage>
0.4

$$$$
>  <variant.code>
A89G A94G

>  <self-cleavage>
1.39

$$$$
>  <variant.code>
A24U A27U

>  <self-cleavage>
1.14

$$$$
>  <variant.code>
U39A U57C

>  <self-cleavage>
0.73

$$$$
>  <variant.code>
A110G A118G

>  <self-cleavage>
0.08

$$$$
>  <variant.code>
G8A C32U

>  <self-cleavage>
2.12

$$$$
>  <variant.code>
G58U C107A

>  <self-cleavage>
0.03

$$$$
>  <variant.code>
U102A A126G

>  <self-cleavage>
0.43

$$$$
>  <variant.code>
A110U A118U

>  <self-cleavage>
0.75

$$$$
>  <variant.code>
A33G A96G

>  <self-cleavage>
0.96

$$$$
>  <variant.code>
C32U U38C

>  <self-cleavage>
1.02

$$$$
>  <variant.code>
G74C A96G

>  <self-cleavage>
0.29

$$$$
>  <variant.code>
A59U A111G

>  <self-cleavage>
0.02

$$$$
>  <variant.code>
U2C A36G

>  <self-cleavage>
1.25

$$$$
>  <variant.code>
A4G G106A

>  <self-cleavage>
0.02

$$$$
>  <variant.code>
G65U A90G

>  <self-cleavage>
0.96

$$$$
>  <variant.code>
A55U A114G

>  <self-cleavage>
0.21

$$$$
>  <variant.code>
A64U U132C

>  <self-cleavage>
1.49

$$$$
>  <variant.code>
A62U A96G

>  <self-cleavage>
1.69

$$$$
>  <variant.code>
U9A G58U

>  <self-cleavage>
0.65

$$$$
>  <variant.code>
A78G A126C

>  <self-cleavage>
0.09

$$$$
>  <variant.code>
A52G C109U

>  <self-cleavage>
0.71

$$$$
>  <variant.code>
A62G U124G

>  <self-cleavage>
1.13

$$$$
>  <variant.code>
A33G U72G

>  <self-cleavage>
0.14

$$$$
>  <variant.code>
U12C A78U

>  <self-cleavage>
0.34

$$$$
>  <variant.code>
A13G U122C

>  <self-cleavage>
0.76

$$$$
>  <variant.code>
U130C U133C

>  <self-cleavage>
1.54

$$$$
>  <variant.code>
C17U U37C

>  <self-cleavage>
1

$$$$
>  <variant.code>
A23G A91C

>  <self-cleavage>
1.49

$$$$
>  <variant.code>
A27G A36G

>  <self-cleavage>
1.26

$$$$
>  <variant.code>
U38C G99C

>  <self-cleavage>
0.34

$$$$
>  <variant.code>
G83U C88U

>  <self-cleavage>
1.11

$$$$
>  <variant.code>
A60U A118G

>  <self-cleavage>
1.58

$$$$
>  <variant.code>
A98G A125U

>  <self-cleavage>
0.84

$$$$
>  <variant.code>
U2C A135G

>  <self-cleavage>
1.32

$$$$
>  <variant.code>
U57C U108C

>  <self-cleavage>
0.01

$$$$
>  <variant.code>
C45U A56C

>  <self-cleavage>
0.67

$$$$
